Tested on: A498 renal
experiment-notes: NCI-60 one-dose screen, 48 h
experimental-parameters: 10 µM unless noted
Protocol: Growth inhibition of the A498 human tumor cell line is measured as a screen for anti-cancer activity. Cells are grown in 96 well plates and exposed to the test compound for 48 hours. Compounds are tested at a single concentration, which is 10^-5 M for most compounds. The reported endpoint is percent growth (GI% or GIPRCNT), where numbers from 0 - 100% represent growth inhibition, and numbers from -100% - 0 represent cell death. For example, a value of 40 represents 60% growth inhibition. […]
About 83,000 compounds went through this panel and 20% of them were active in at least one assay; those are over-represented in the sample as a whole. Calls of active or inactive are those of the source. The calls were made as follows: active = growth percent below 10; inactive = the rest.
Tick one outcome: active, inactive

Input: Recorded call for CC(=O)OCc1nc(C#N)c(N(C)C)o1 ?
Output: inactive

Input: Recorded call for CN(C)CCCn1c2c(c3ncccc3c1=O)C(=O)c1ccccc1-2 ?
Output: inactive

Input: Recorded call for O=[N+]([O-])c1ccc(N/N=C(/C(=N/Nc2ccc([N+](=O)[O-])cc2)c2ccccc2)c2ccccc2)cc1 ?
Output: inactive

Input: Recorded call for Cc1nc2sc(C(=O)Nc3cccc(Cl)c3C)c(N)c2cc1C(=O)c1ccccc1 ?
Output: active

Input: Recorded call for CCN1CCN(Cc2cn(CC(=O)Nc3ccc4c(ccn4Cc4ccccc4)c3)nn2)CC1 ?
Output: inactive

Input: Recorded call for O=C1/C(=C/c2ccccc2Br)COc2ccc(O)c(O)c21 ?
Output: inactive

Input: Recorded call for COc1cc(-c2csc(NC(=O)c3cc(-n4cnc(C)c4)cc(C(F)(F)F)c3)n2)cc(OC)c1OC ?
Output: inactive

Input: Recorded call for CCOC(=O)CNP(=O)(OC[C@@H](Cc1ccccc1)NC(=O)c1cc2ccccc2s1)Oc1ccccc1 (stereo partly drawn) ?
Output: inactive

Input: Recorded call for CC1(C)CC[C@]2(C(=O)O)CC[C@]3(C)C(=CC[C@@H]4[C@@]5(C)C/C(=C/O)C(=O)C(C)(C)[C@@H]5CC[C@]43C)[C@@H]2C1 ?
Output: inactive

Input: Recorded call for CCCCCC(=O)OCC(=O)O[C@@H]1C[C@]2(C(C)C)O[C@@]1(C)[C@@H]1CC[C@@H](C)[C@H]1[C@@H]2OC(=O)/C=C/c1ccccc1 ?
Output: active

Input: Recorded call for CCN(CC)c1nc(SCc2ccccc2Cl)ncc1C ?
Output: inactive

Input: Recorded call for CCN(c1ccc(Cl)cc1)c1nc(-c2ccc([N+](=O)[O-])cc2)cs1 ?
Output: inactive

Input: Recorded call for O=C(c1ccc(-c2nc(CSc3nc4ccccc4s3)no2)cc1)N1CCSCC1 ?
Output: inactive

Input: Recorded call for CN(CCn1sc(=O)n(Cc2ccccc2)c1=O)Cc1ccc2c(Cl)cc(Cl)c(O)c2n1 ?
Output: inactive

Input: Recorded call for CCOC(=O)c1nc(Nc2ccc(NC(=O)Nc3ccc(F)cc3)cc2)c2ccccc2n1 ?
Output: inactive

Input: Recorded call for COc1cccc(CNc2ncnc3c2ncn3C2OC(CO)C(O)C2O)c1O (stereo not drawn) ?
Output: active

Input: Recorded call for Cc1ccc(CNc2ccc(Cl)cc2NCc2ccc(C)c(O)c2)cc1O ?
Output: inactive

Input: Recorded call for CCN1CCN(c2cc(C(=O)Nc3nc(-c4cc(OC)c(OC)c(OC)c4)cs3)cc(C(F)(F)F)c2)CC1 ?
Output: inactive

Input: Recorded call for CC(C)=CCC[C@](C)(O)[C@H]1CC[C@]2(C)[C@@H]1CC[C@@H]1[C@@]3(C)Cc4nccnc4C(C)(C)[C@@H]3CC[C@]12C ?
Output: inactive

Input: Recorded call for Cn1cc(-c2nonc2-c2c[nH]c3ccc(Br)cc23)c2cc(Br)ccc21 ?
Output: inactive

Input: Recorded call for O=C(Cn1c(=O)sc2ccccc21)NNS(=O)(=O)c1ccccc1[N+](=O)[O-] ?
Output: inactive

Input: Recorded call for CCc1nc2c(=O)[nH]cnc2o1 ?
Output: inactive

Input: Recorded call for Nc1ncnc2c1N=C(c1ccc(Cl)cc1)CC(c1ccc3c(c1)OCO3)N2 (stereo not drawn) ?
Output: inactive

Input: Recorded call for Cc1ccc(/C=C2\CN(C(=O)OC(C)(C)C)C/C(=C\c3ccc(C)cc3)C2=O)cc1 ?
Output: inactive

Input: Recorded call for C=C1C(=O)O[C@H]2[C@H]1CC/C(COC(=O)NCc1ccc(Cn3c(=O)sn(CCI)c3=O)cc1)=C\CC[C@@]1(C)O[C@@H]21 ?
Output: inactive

Input: Recorded call for COc1cc2c(c(OC)c1OC)C(=O)CC(c1cccc(NC(=O)c3ccc(Br)cc3)c1)O2 (stereo not drawn) ?
Output: inactive

Input: Recorded call for Oc1c(Cl)cc(Cl)c2ccc(Cn3cc(-c4ccc(C(F)(F)F)cc4)nn3)nc12 ?
Output: inactive

Input: Recorded call for CCOC(=O)c1c(NC(=O)c2ccc(C(C)C)cc2)sc2c(CN(C)C)c(O)ccc12 ?
Output: inactive

Input: Recorded call for N#C/C(=C/c1ccc([N+](=O)[O-])cc1)n1nnc2cc(F)c(F)cc21 ?
Output: inactive

Input: Recorded call for CCOC(=O)C(=Cc1cccc(Br)c1)C(=O)OCC ?
Output: inactive

Input: Recorded call for COC(=O)c1n[nH]c2ccc3nc(-c4cn[nH]c4C(F)(F)F)c4c(c3c12)CCCC4 ?
Output: active

Input: Recorded call for Oc1c(Cl)cc(Cl)cc1/C=N/Nc1nnc(N/N=C/c2cc(Cl)cc(Cl)c2O)c2ccccc12 ?
Output: active

Input: Recorded call for CN(C)C1CCN(Cc2ccc(NC(=O)c3cncc(C#Cc4cnc(N)c5ncccc45)c3)cc2C(F)(F)F)CC1 ?
Output: inactive

Input: Recorded call for O=Nc1c(-c2c(O)[nH]c3ncccc23)[nH]c2ccccc12 ?
Output: active

Input: Recorded call for Fc1cc(F)cc(C(c2c[nH]c3ccccc23)c2c[nH]c3ccccc23)c1 ?
Output: inactive

Input: Recorded call for CCNc1cc(-c2cccc(OC(F)(F)F)c2)nc2ccc(N3CCCC3)cc12 ?
Output: inactive

Input: Recorded call for O=c1oc2ccccc2cc1C1=NN=C(SCc2ccccc2)SC1 ?
Output: inactive

Input: Recorded call for Cc1ccc2c(n1)C(=O)c1[nH]c3ccccc3c1C2=O ?
Output: inactive
